- system.under.test: T1, human CD276 protein (human, UniProt Q5ZPR3 29-534)
- T1 construct: whole, on cells; for SKOV3 and the other cancer lines the protein is the cells' own; also called B7-H3; B7H3
- T1 sequence (looked up): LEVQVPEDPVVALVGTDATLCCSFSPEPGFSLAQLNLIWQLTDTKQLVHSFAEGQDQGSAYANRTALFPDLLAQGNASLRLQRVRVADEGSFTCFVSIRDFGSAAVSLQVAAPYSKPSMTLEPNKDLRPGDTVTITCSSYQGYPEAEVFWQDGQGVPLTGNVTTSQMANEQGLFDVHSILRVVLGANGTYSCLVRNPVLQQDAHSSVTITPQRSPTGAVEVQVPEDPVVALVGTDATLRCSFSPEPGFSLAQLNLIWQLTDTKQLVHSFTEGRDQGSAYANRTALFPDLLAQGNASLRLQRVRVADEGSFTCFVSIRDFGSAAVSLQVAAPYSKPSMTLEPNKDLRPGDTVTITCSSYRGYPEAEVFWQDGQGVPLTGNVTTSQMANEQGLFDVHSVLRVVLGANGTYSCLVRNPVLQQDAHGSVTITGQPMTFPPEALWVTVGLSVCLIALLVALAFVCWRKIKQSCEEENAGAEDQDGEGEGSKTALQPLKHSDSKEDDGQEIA
- test.summary: FACS on SKOV3 cells
MFI (Max) values, listed per item
Please respond with just the number, no unit label.

binder	MFI (Max)
3-C2-C3-E7 (human IgG1 chimeric antibody) (antibody, V domains shown, human IgG1 chimeric antibody of the mouse clone) VH: EVQLQQSGPELVKPGASVKISCKTSGYTFTENTMHWVKQSHGKRLEWIGGINPNTGGTTYNQKFKGKATLTVDKSSSTAYMELRSLTSEDSAVYYCARRGTNWEHWYFDVWGAGTTVTVSS VL: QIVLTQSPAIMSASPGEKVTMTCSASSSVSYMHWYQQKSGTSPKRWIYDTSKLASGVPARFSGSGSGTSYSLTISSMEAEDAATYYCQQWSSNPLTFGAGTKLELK	3700

As a next step, examine the binder that follows.
## Input Query: MFI (Max); subject: 6-D8-E7-A11 (human IgG1 chimeric antibody) (antibody, V domains shown, human IgG1 chimeric antibody of the mouse clone) VH: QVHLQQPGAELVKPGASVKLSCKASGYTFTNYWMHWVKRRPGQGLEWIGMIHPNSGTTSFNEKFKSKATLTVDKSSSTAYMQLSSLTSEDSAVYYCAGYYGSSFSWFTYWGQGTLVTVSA VL: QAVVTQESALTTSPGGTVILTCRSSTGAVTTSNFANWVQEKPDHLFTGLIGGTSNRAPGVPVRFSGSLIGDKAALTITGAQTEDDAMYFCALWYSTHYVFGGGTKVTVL
## Output 2830
